Test: Stability of DNPs by DLS after storage at 5° C.
Format: physicochemical
Conditions: after 27 days at 5° C.; IAJD 4.0 mg/mL + Luc-mRNA 0.1 mg/mL, acetate buffer
Experimental: The stability of the DNPs as assayed by DLS. All the samples are prepared in acetate buffer. […]
Measured Endpoint: PDI

> print(dat)
                                   compound  measured.endpoint  result
1  CCCCCCCCCCCCCCCOc1cc(COC(=O)CCCN2CCN(CCO)CC2)cc(OCCCCCCCCCC)c1 [IAJD 142]                PDI   0.266
2  CCCCCCCCCCCCCCCOc1cc(COC(=O)CCCN2CCN(C)CC2)cc(OCCCCCCCCCCCC)c1 [IAJD 143]                PDI   0.243
3  CCCCCCCCCCCCCCCOc1cc(COC(=O)CCCN2CCN(CCO)CC2)cc(OCCCCCCCCCCCCC)c1 [IAJD 146]                PDI   0.285
4  CCCCCCCCCCCCCCCOc1cc(COC(=O)CCCN2CCN(C)CC2)cc(OCCCCCCCCCC)c1 [IAJD 141]                PDI   0.286
5  CCCCCCCCCCCCCCCOc1cc(COC(=O)CCCN2CCN(C)CC2)cc(OCCCCCCCCCCCCC)c1 [IAJD 145]                PDI   0.330
6  CCCCCCCCCCCCCCCOc1cc(COC(=O)CCCN2CCN(C)CC2)cc(OCC(CC)CCCC)c1 (centres unmarked) [IAJD 135]                PDI   0.278
7  CCCCCCCCCCCCCCCOc1cc(COC(=O)CCCN2CCN(CCO)CC2)cc(OCCCCCCCCCCCC)c1 [IAJD 144]                PDI   0.276
8  CCCCCCCCCCCCCCCOc1cc(COC(=O)CCCN2CCN(CCO)CC2)cc(OCC(CC)CCCC)c1 (centres unmarked) [IAJD 136]                PDI   0.296
